# System: purified human Hsp90
# Assay: Binding Assay: fluorescence polarization with BODIPY-labeled geldanamycin
# Conditions used: 5 μM compound, BODIPY-GM 10 nM, Hsp90 30 nM
Please note: TRUE applies when % Inhibition at 5 μM Compound Concentration is 9% or greater, and FALSE applies otherwise.

Q: # check: % Inhibition at 5 μM Compound Concentration of COc1ccc(OC)c(Sc2nc3c(N)ncnc3n2CCc2ccc(N)cc2)c1 [Example 216] is greater than or equal to 9%
A: TRUE

Q: # check: % Inhibition at 5 μM Compound Concentration of Nc1ncn(CC[C@H]2CCCN(C=O)C2)c2nc(Sc3cc4c(cc3Br)OCO4)nc1-2 [Example 603] is greater than or equal to 9%
A: FALSE

Q: # check: % Inhibition at 5 μM Compound Concentration of COc1ccc(OC)c(Sc2nc3c(N)ncnc3n2CCc2cccc3ccccc23)c1 [Example 67] is greater than or equal to 9%
A: TRUE

Q: # check: % Inhibition at 5 μM Compound Concentration of COc1ccc(OC)c(Sc2nc3c(N)ncn(CCc4ccc5c(c4)OCO5)c-3n2)c1 [Example 168] is greater than or equal to 9%
A: FALSE

Q: # check: % Inhibition at 5 μM Compound Concentration of COc1ccc(OC)c(Sc2nc3c(N)ncn(CCc4ccc(Br)cc4)c-3n2)c1 [Example 72] is greater than or equal to 9%
A: FALSE

Q: # check: % Inhibition at 5 μM Compound Concentration of CC(=O)N1CCCC(CCn2cnc(N)c3nc(Sc4cc5c(cc4Br)OCO5)nc2-3)C1 (centres unmarked) [Example 401] is greater than or equal to 9%
A: FALSE

Q: # check: % Inhibition at 5 μM Compound Concentration of Nc1ncn(CCC2CC3CCC(C2)O3)c2nc(Sc3cc4c(cc3Br)OCO4)nc1-2 (centres unmarked) [Example 606] is greater than or equal to 9%
A: TRUE

Q: # check: % Inhibition at 5 μM Compound Concentration of COc1ccc(OC)c(Sc2nc3c(N)ncn(CCC4CCN(C(=O)OC(C)(C)C)CC4)c-3n2)c1 [Example 343] is greater than or equal to 9%
A: FALSE

Q: # check: % Inhibition at 5 μM Compound Concentration of COc1ccc(OC)c(Sc2nc3c(N)ncn(CCc4cc(F)cc(F)c4)c-3n2)c1 [Example 144] is greater than or equal to 9%
A: FALSE

Q: # check: % Inhibition at 5 μM Compound Concentration of Nc1ncn(CCC2CCCCN2S(=O)(=O)C(F)(F)F)c2nc(Sc3cc4c(cc3Br)OCO4)nc1-2 (centres unmarked) [Example 397] is greater than or equal to 9%
A: FALSE

Q: # check: % Inhibition at 5 μM Compound Concentration of COc1ccc(C#N)cc1Sc1nc2c(N)ncn(CCc3ccccc3)c-2n1 [Example 305] is greater than or equal to 9%
A: TRUE

Q: # check: % Inhibition at 5 μM Compound Concentration of COc1ccc(C)cc1Sc1nc2c(N)ncn(CCc3ccccc3)c-2n1 [Example 315] is greater than or equal to 9%
A: TRUE

Q: # check: % Inhibition at 5 μM Compound Concentration of CCC(Cn1c(Sc2cc(OC)ccc2OC)nc2c(N)ncnc21)c1ccccc1 (centres unmarked) [Example 87] is greater than or equal to 9%
A: TRUE

Q: # check: % Inhibition at 5 μM Compound Concentration of CC(C)(NCCn1cnc(N)c2nc(Sc3cc4c(cc3Br)OCO4)nc1-2)c1ccccn1 [Example 333] is greater than or equal to 9%
A: TRUE

Q: # check: % Inhibition at 5 μM Compound Concentration of Nc1ncn(CCC2CCCCC2)c2nc(Sc3cc4c(cc3Br)OCO4)nc1-2 [Example 174] is greater than or equal to 9%
A: TRUE

Q: # check: % Inhibition at 5 μM Compound Concentration of COc1ccc(OC)c(Sc2nc3c(N)ncnc3n2CCCc2ccccc2)c1 [Example 3] is greater than or equal to 9%
A: TRUE

----------
# System tested: purified human Hsp90
# Assay: Binding Assay: fluorescence polarization with BODIPY-labeled geldanamycin
# Conditions used: BODIPY-GM 10 nM, Hsp90 30 nM
Property: log10 IC50 (log10 of the value in nM)
All values: base-10 log of IC50 in nM.

Q: Consider the compound shown here: CC(C)[C@H]1C[C@H](CCn2c(Sc3cc4c(cc3Br)OCO4)nc3c(N)ncnc32)CCN1 (relative stereo) [Example 479] What is its recorded log10 IC50?
A: 2.30

Q: Consider the compound shown here: Nc1ncnc2c1nc(Sc1cc3c(cc1Br)OCO3)n2CCCC1CCCCN1 (centres unmarked) [Example 646] What is its recorded log10 IC50?
A: 1.78

Q: Consider the compound shown here: COc1ccc(OC)c(Sc2nc3c(N)ncnc3n2CCc2cccs2)c1 [Example 199] What is its recorded log10 IC50?
A: 2.04

Q: Consider the compound shown here: CC(C)N1CCCCC1CCn1c(Sc2cc3c(cc2Br)OCO3)nc2c(N)ncnc21 (centres unmarked) [Example 445] What is its recorded log10 IC50?
A: 2.48

Q: Consider the compound shown here: CC(C)N1CCC(CCn2c(Sc3cc4c(cc3Br)OCO4)nc3c(N)ncnc32)CC1 [Example 582] What is its recorded log10 IC50?
A: 2.95

----------
# Test system: purified human Hsp90
# Assay: Binding Assay: fluorescence polarization with BODIPY-labeled geldanamycin
# Conditions used: 5 μM compound, BODIPY-GM 10 nM, Hsp90 30 nM
For each of the molecules below, state its % Inhibition at 5 μM Compound Concentration.
Please reply with the bare figure in % and do not write the unit itself.

Q: Consider the molecule shown here: CCC(C)C(Cn1cnc(N)c2nc(Sc3cc4c(cc3Br)OCO4)nc1-2)c1ccccc1 (stereo not drawn) [Example 100] What is its recorded % Inhibition at 5 μM Compound Concentration?
A: 39

Q: Consider the molecule shown here: COc1ccc(OC)c(Sc2nc3c(N)ncn(CCc4ccccc4C(F)(F)F)c-3n2)c1 [Example 184] What is its recorded % Inhibition at 5 μM Compound Concentration?
A: 0

Q: Consider the molecule shown here: COc1ccc(OC)c(Sc2nc3c(N)ncnc3n2CC(c2ccc(Cl)cc2)C(C)C)c1 (stereo not drawn) [Example 119] What is its recorded % Inhibition at 5 μM Compound Concentration?
A: 15

Q: Consider the molecule shown here: Nc1ncn(CCC2CCN(C(=O)OCc3ccccc3)CC2)c2nc(Sc3cc4c(cc3Br)OCO4)nc1-2 [Example 410] What is its recorded % Inhibition at 5 μM Compound Concentration?
A: 11

Q: Consider the molecule shown here: COc1ccc(OC)c(Sc2nc3c(N)ncn(CCn4ccnc4)c-3n2)c1 [Example 336] What is its recorded % Inhibition at 5 μM Compound Concentration?
A: 13.0

Q: Consider the molecule shown here: COc1ccc(OC)c(Sc2nc3c(N)ncn(CCc4cc(C)cc(C)c4)c-3n2)c1 [Example 133] What is its recorded % Inhibition at 5 μM Compound Concentration?
A: 0

Q: Consider the molecule shown here: Nc1ncnc2c1nc(Sc1cc3c(cc1Br)OCO3)n2CC(O)c1ccc(Cl)cc1Cl (stereo not drawn) [Example 177] What is its recorded % Inhibition at 5 μM Compound Concentration?
A: 0

Q: Consider the molecule shown here: Nc1ncn(CCc2cccnc2)c2nc(Sc3cc4c(cc3Br)OCO4)nc1-2 [Example 152] What is its recorded % Inhibition at 5 μM Compound Concentration?
A: 20

Q: Consider the molecule shown here: Nc1ncn(CCc2ccccc2)c2nc(Cc3cc4c(cc3Br)OCO4)nc1-2 [Example 210] What is its recorded % Inhibition at 5 μM Compound Concentration?
A: 8

Q: Consider the molecule shown here: Cc1ncsc1CCn1cnc(N)c2nc(Sc3cc4c(cc3Br)OCO4)nc1-2 [Example 331] What is its recorded % Inhibition at 5 μM Compound Concentration?
A: 25.0

Q: Consider the molecule shown here: COc1ccc(OC)c(Sc2nc3c(N)ncn(CCc4ccc(S(=O)(=O)NC(C)(C)C)cc4)c-3n2)c1 [Example 276] What is its recorded % Inhibition at 5 μM Compound Concentration?
A: 0.0

Q: Consider the molecule shown here: CCOC(=O)N1CCCCC1CCn1cnc(N)c2nc(Sc3cc(OC)ccc3OC)nc1-2 (stereo not drawn) [Example 338] What is its recorded % Inhibition at 5 μM Compound Concentration?
A: 0

Q: Consider the molecule shown here: COc1ccc(OC)c(Sc2nc3c(N)ncnc3n2CCc2cccc(Cl)c2Cl)c1 [Example 73] What is its recorded % Inhibition at 5 μM Compound Concentration?
A: 2

Q: Consider the molecule shown here: Nc1ncn(CCc2ccccc2C(F)(F)F)c2nc(Sc3cc4c(cc3Br)OCO4)nc1-2 [Example 291] What is its recorded % Inhibition at 5 μM Compound Concentration?
A: 0.0

Q: Consider the molecule shown here: Nc1ncn(CCCn2cccc2)c2nc(Sc3ccc4c(c3)OCO4)nc1-2 [Example 52] What is its recorded % Inhibition at 5 μM Compound Concentration?
A: 0

Q: Consider the molecule shown here: COc1ccc(OC)c(Sc2nc3c(N)ncnc3n2CC(c2ccccc2)C2CCCCC2)c1 (stereo not drawn) [Example 179] What is its recorded % Inhibition at 5 μM Compound Concentration?
A: 8

Q: Consider the molecule shown here: CC(=O)N1CCC(CCn2cnc(N)c3nc(Sc4cc5c(cc4Br)OCO5)nc2-3)CC1 [Example 365] What is its recorded % Inhibition at 5 μM Compound Concentration?
A: 31

Q: Consider the molecule shown here: CCC(Cn1cnc(N)c2nc(Sc3cc4c(cc3Br)OCO4)nc1-2)c1ccccc1 (stereo not drawn) [Example 58] What is its recorded % Inhibition at 5 μM Compound Concentration?
A: 8

Q: Consider the molecule shown here: COc1ccc(OC)c(Sc2nc3c(N)ncn(CCC4CCOCC4)c-3n2)c1 [Example 349] What is its recorded % Inhibition at 5 μM Compound Concentration?
A: 12

Q: Consider the molecule shown here: COc1ccc(OC)c(Sc2nc3c(N)ncn(CCc4ccccn4)c-3n2)c1 [Example 136] What is its recorded % Inhibition at 5 μM Compound Concentration?
A: 16

Q: Consider the molecule shown here: COc1ccc(F)cc1Sc1nc2c(N)ncn(CCc3ccccc3)c-2n1 [Example 313] What is its recorded % Inhibition at 5 μM Compound Concentration?
A: 3.0

Q: Consider the molecule shown here: CC(C)(C)NS(=O)(=O)c1ccc(CCn2cnc(N)c3nc(Sc4cc5c(cc4Br)OCO5)nc2-3)cc1 [Example 274] What is its recorded % Inhibition at 5 μM Compound Concentration?
A: 0.0

Q: Consider the molecule shown here: COc1ccc(F)cc1Sc1nc2c(N)ncn(CCc3ccccc3Cl)c-2n1 [Example 317] What is its recorded % Inhibition at 5 μM Compound Concentration?
A: 0.0

Q: Consider the molecule shown here: Nc1ncn(CCC2CCOCC2)c2nc(Sc3cc4c(cc3Br)OCO4)nc1-2 [Example 350] What is its recorded % Inhibition at 5 μM Compound Concentration?
A: 25

Q: Consider the molecule shown here: CC(=O)N1CCC(CCn2cnc(N)c3nc(Sc4ccc5c(c4)OC(F)(F)O5)nc2-3)CC1 [Example 572] What is its recorded % Inhibition at 5 μM Compound Concentration?
A: 0.00

Q: Consider the molecule shown here: COc1ccc([N+](=O)[O-])cc1Sc1nc2c(N)ncn(CCc3ccccc3Cl)c-2n1 [Example 319] What is its recorded % Inhibition at 5 μM Compound Concentration?
A: 27.0

Q: Consider the molecule shown here: Nc1ncn(CCC(N)C2CC2)c2nc(Sc3cc4c(cc3Br)OCO4)nc1-2 (stereo not drawn) [Example 688] What is its recorded % Inhibition at 5 μM Compound Concentration?
A: 30

Q: Consider the molecule shown here: CC(C)[C@H](NC(=O)OC(C)(C)C)C(=O)N1CCCC(CCn2cnc(N)c3nc(Sc4cc5c(cc4Br)OCO5)nc2-3)C1 (stereo partly drawn) [Example 698] What is its recorded % Inhibition at 5 μM Compound Concentration?
A: 55

Q: Consider the molecule shown here: CC(C)n1nnnc1N1CCC(CCn2cnc(N)c3nc(Sc4cc5c(cc4Br)OCO5)nc2-3)CC1 [Example 613] What is its recorded % Inhibition at 5 μM Compound Concentration?
A: 15.00

Q: Consider the molecule shown here: Nc1ncn(CCc2ccccc2F)c2nc(Sc3cc4c(cc3Br)OCO4)nc1-2 [Example 148] What is its recorded % Inhibition at 5 μM Compound Concentration?
A: 35

Q: Consider the molecule shown here: N#Cc1cc2c(cc1Sc1nc3c(N)ncn(CCc4ccccc4Cl)c-3n1)OCO2 [Example 327] What is its recorded % Inhibition at 5 μM Compound Concentration?
A: 33.0

Q: Consider the molecule shown here: CC(C)(C)OC(=O)NC(CCn1cnc(N)c2nc(Sc3cc4c(cc3Br)OCO4)nc1-2)C1CCCC1 (stereo not drawn) [Example 680] What is its recorded % Inhibition at 5 μM Compound Concentration?
A: 14
